B1: TPR t1 (parent)
chain: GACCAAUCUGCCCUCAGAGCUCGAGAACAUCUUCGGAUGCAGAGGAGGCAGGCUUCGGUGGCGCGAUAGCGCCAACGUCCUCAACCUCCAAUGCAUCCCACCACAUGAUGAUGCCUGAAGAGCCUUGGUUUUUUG

Variants of: B1
Experiment: polymerase ribozyme fitness, log enrichment relative to wild type (log ratio); higher = more active; in vitro selection for triplet polymerase activity
measured quantity: polymerase ribozyme fitness (log ratio)
One number for each entry.

Known results for variants:
- sequence record: "GACCAAUCUGCCCUCAGAGCUCGAGAAAAUCUUCGGAUGCAGAGGAGUCAGGUUUCCGUAGCGCGAUAGCGCCAACGUCCUCAACCUCCAAUGCAUCCCACCACACGAUGAUGCCUGAAGAGCCUUGGUUUUUUG"
  polymerase ribozyme fitness (log ratio): -5.56
- sequence record: "GACCAAUCUGCCCUCAGAGCUCGAGAACAUCUUCGAAUGCAGAGGAGGCAGGCUUCGGUGGCGCGAUAACGCGAACGUCCUCAACCUCCAAUGCAUCCCACCACAUGAUGAUGCCUGAAAAGCCUUGGUUUUUUG"
  polymerase ribozyme fitness (log ratio): -5.29
- sequence record: "GACCACUCUGCCCUCAGAGCUCGAGAACAUCUUCGGAUGCAGAGGAGGCAGGCUUCGGUGGCGCGAUAGCGCCAACGUCCUCAACCUCCAAUGCAUCCCUCCACAUGAUGAUGCCUGAAGAGCCUUGGUUUUUUG"
  polymerase ribozyme fitness (log ratio): -0.814
- sequence record: "GACCAAUCUGCCCUCAGAGCUCGAGAUCAUCUUCGGAUGCAGAGGAGGCAGGCUUCCGUGGCGCGAUAGCGCCAACGUCCUCAACCUCGAAUGCAUCCCACCACAUGAUGAUGCCUGAAAAGCCUUGGUUAUUUG"
  polymerase ribozyme fitness (log ratio): -4.12
- sequence record: "GACCAAUUUGCCCUCAGAGCUCGAGAACAUCUUCGGAUGCAGAGGAGGCAGGAUUCGGUGGCGCGAUAGCGCGAACGUCCUCAACCUCCAAUGCAUCCCACCACAUGAUGAUGCCUGAAGAGCCUUGGUUUUUUG"
  polymerase ribozyme fitness (log ratio): -0.563
- sequence record: "GACCAAUCUGCCCUCAGAGCUCGAGAACAUCUUCGGAUGCAGAGGAGGCAGGCUUCGGUGGCGCGAUAGCUCCAACGUCCUCAACCUCCAAUGCAUCCCACCACAUGAUGAUGCCUGAAGAGCCUUGGUAUUUUG"
  polymerase ribozyme fitness (log ratio): 0.232
- sequence record: "GACCAAUCUGCCCUCAGAGCUCGAGAACAUCUUCGGAUGCAGAGGAGGCAGGCUUCGGUGCCGCGAUAGCGCCAAUGUCCUCAACCUCCAAUGCAUCCCACCACAUGAUGAUGCCUGAAGAGCCUUGGUUUUUUG"
  polymerase ribozyme fitness (log ratio): -3.1
- sequence record: "GACCAAUCUGCCCUCAGAGCUCGAGAACAUCUUCGGAUGCAGAGGCGGCAGGCUUCGGUGGCGCGAUAGCGCCAACGUCCUCAACCUCCAAUGCAGCCCACCAUAUGAUGAUGCCUGAAGAGCCUUGGUUCUUUG"
  polymerase ribozyme fitness (log ratio): -1.75

Hi, could you look up polymerase ribozyme fitness (log ratio) for each item in my list?
1. GACCAAUCUGCCCACAGAGCUCGAGAACAUCUUCGGAUGCAGAGGAGGCAGUCUUCGGUGGCGCGAUAGCGUCAACGUCCUCAACCUCCAAUGCAUCCCACCACAUGAUGAUGCCCGAAGAUCCUUGGUUUUUUG
2. GACCAAUCUGCCCUCAGAGCUCGAGAACAUCUUCGGAUGCAGAAGAUGCAGGCUUCGGUGGCGCGAUAGCGCCAACGUCCUCAACCUCCAAUGAAUCCCACCACAUGAUGAUGCCUGAAGAGCCUUGGUUUUUUG
3. GACCAAUGUGCCCUCAGUGCUCGAGAACAUCUUCGGAUGCAGAGGAGGCAGUCUUCGGUGGCGCGAUAGCGCCAACGUCCUCAACCUCCCAUGCAUCCCACCACAUGAUGAUGCCUGAAGAGCCUUGGUUUUUUG

## Output
1. -4.11
2. -2.96
3. -1.7
